Tested on: H-MEC-1
Assay: SRB colorimetric cell growth inhibition assay, H-MEC-1
Type: cell-based
Settings: Homo sapiens, HMEC-1; H-MEC-1; GI=growth inhibition; read-out: GI50 H-MEC-1
Known log10 GI50 of a selection of molecules
# values: log10(GI50), units nM

Below, 5 molecules whose answers are already recorded.
MOLECULE	log10 GI50
COc1cc2ccn3c(c(-c4ccc(OC(=O)[C@@H](N)C(C)C)c(OC)c4)c4c5cc(OC)c(OC(=O)[C@@H](N)C(C)C)cc5oc(=O)c43)c2cc1OC	2.91
COc1cc(-c2c3n(c4c(=O)oc5cc(OC(=O)[C@@H](N)C(C)C)c(OC)cc5c24)CCc2cc(OC(=O)[C@@H](N)C(C)C)c(OC)cc2-3)ccc1OC(=O)[C@@H](N)C(C)C	1.99
COc1cc(-c2c3n(c4c(=O)oc5cc(OC(=O)[C@H](Cc6c[nH]c7ccccc67)NC(=O)OC(C)(C)C)c(OC)cc5c24)CCc2cc(OC(=O)[C@H](Cc4c[nH]c5ccccc45)NC(=O)OC(C)(C)C)c(OC)cc2-3)ccc1OC(=O)[C@H](Cc1c[nH]c2ccccc12)NC(=O)OC(C)(C)C	1.38
COc1cc(-c2c3c4cc(OC)c(O)cc4oc(=O)c3n3ccc4cc(OC)c(OC)cc4c23)ccc1O	2.90
COc1cc(-c2c3c4cc(OC)c(OC(=O)[C@@H](N)Cc5ccccc5)cc4oc(=O)c3n3ccc4c(OC(=O)[C@@H](N)Cc5ccccc5)c(OC)c(OC)cc4c23)ccc1OC(=O)[C@@H](N)Cc1ccccc1	2.08

Query: Entry under review: `COc1cc(-c2c3c4cc(OC)c(OC(=O)[C@@H](N)C(C)C)cc4oc(=O)c3n3ccc4cc(OC(=O)[C@@H](N)C(C)C)c(OC)cc4c23)ccc1OC(=O)[C@@H](N)C(C)C` . Reported log10 GI50?
Result: 0.42

Query: Entry under review: `COc1cc2ccn3c(c(-c4ccc(OC(=O)[C@@H](N)Cc5ccccc5)c(OC)c4)c4c5cc(OC)c(OC(=O)[C@@H](N)Cc6ccccc6)cc5oc(=O)c43)c2cc1OC` . Reported log10 GI50?
Result: 2.69

Query: Entry under review: `COc1cc(-c2c3n(c4c(=O)oc5cc(O)c(OC)cc5c24)CCc2c-3cc(OC)c(OC)c2O)ccc1O` . Reported log10 GI50?
Result: 2.78

Query: Entry under review: `COc1cc(-c2c3n(c4c(=O)oc5cc(OC(=O)[C@@H](N)Cc6c[nH]c7ccccc67)c(OC)cc5c24)CCc2cc(OC(=O)[C@@H](N)Cc4c[nH]c5ccccc45)c(OC)cc2-3)ccc1OC(=O)[C@@H](N)Cc1c[nH]c2ccccc12` . Reported log10 GI50?
Result: 2.91

Query: Entry under review: COc1cc(-c2c3c4cc(OC)c(O)cc4oc(=O)c3n3ccc4cc(O)c(OC)cc4c23)ccc1O [Compound 3, lamellarin D, reference compound] . Reported log10 GI50?
Result: 2.05

Query: Entry under review: `COc1cc(-c2c3n(c4c(=O)oc5cc(OC(=O)[C@H](N)C(C)C)c(OC)cc5c24)CCc2cc(OC(=O)[C@H](N)C(C)C)c(OC)cc2-3)ccc1OC(=O)[C@H](N)C(C)C` . Reported log10 GI50?
Result: 2.44

Query: Entry under review: `COc1cc(-c2c3n(c4c(=O)oc5cc(OC(=O)[C@H](NC(=O)OC(C)(C)C)C(C)C)c(OC)cc5c24)CCc2cc(OC(=O)[C@H](NC(=O)OC(C)(C)C)C(C)C)c(OC)cc2-3)ccc1OC(=O)[C@H](NC(=O)OC(C)(C)C)C(C)C` . Reported log10 GI50?
Result: 2.39

Query: Entry under review: `COc1cc(-c2c3c4cc(OC)c(OC(=O)[C@@H](N)C(C)C)cc4oc(=O)c3n3ccc4c(OC(=O)[C@@H](N)C(C)C)c(OC)c(OC)cc4c23)ccc1OC(=O)[C@@H](N)C(C)C` . Reported log10 GI50?
Result: 1.29

Query: Entry under review: `COc1cc(-c2c3c4cc(OC)c(OC(=O)[C@@H]5CCCN5)cc4oc(=O)c3n3ccc4cc(OC(=O)[C@@H]5CCCN5)c(OC)cc4c23)ccc1OC(=O)[C@@H]1CCCN1` . Reported log10 GI50?
Result: 0.99
